# system under test: GST-Met kinase (Homo sapiens)
# Sequence (P08581 25-1390): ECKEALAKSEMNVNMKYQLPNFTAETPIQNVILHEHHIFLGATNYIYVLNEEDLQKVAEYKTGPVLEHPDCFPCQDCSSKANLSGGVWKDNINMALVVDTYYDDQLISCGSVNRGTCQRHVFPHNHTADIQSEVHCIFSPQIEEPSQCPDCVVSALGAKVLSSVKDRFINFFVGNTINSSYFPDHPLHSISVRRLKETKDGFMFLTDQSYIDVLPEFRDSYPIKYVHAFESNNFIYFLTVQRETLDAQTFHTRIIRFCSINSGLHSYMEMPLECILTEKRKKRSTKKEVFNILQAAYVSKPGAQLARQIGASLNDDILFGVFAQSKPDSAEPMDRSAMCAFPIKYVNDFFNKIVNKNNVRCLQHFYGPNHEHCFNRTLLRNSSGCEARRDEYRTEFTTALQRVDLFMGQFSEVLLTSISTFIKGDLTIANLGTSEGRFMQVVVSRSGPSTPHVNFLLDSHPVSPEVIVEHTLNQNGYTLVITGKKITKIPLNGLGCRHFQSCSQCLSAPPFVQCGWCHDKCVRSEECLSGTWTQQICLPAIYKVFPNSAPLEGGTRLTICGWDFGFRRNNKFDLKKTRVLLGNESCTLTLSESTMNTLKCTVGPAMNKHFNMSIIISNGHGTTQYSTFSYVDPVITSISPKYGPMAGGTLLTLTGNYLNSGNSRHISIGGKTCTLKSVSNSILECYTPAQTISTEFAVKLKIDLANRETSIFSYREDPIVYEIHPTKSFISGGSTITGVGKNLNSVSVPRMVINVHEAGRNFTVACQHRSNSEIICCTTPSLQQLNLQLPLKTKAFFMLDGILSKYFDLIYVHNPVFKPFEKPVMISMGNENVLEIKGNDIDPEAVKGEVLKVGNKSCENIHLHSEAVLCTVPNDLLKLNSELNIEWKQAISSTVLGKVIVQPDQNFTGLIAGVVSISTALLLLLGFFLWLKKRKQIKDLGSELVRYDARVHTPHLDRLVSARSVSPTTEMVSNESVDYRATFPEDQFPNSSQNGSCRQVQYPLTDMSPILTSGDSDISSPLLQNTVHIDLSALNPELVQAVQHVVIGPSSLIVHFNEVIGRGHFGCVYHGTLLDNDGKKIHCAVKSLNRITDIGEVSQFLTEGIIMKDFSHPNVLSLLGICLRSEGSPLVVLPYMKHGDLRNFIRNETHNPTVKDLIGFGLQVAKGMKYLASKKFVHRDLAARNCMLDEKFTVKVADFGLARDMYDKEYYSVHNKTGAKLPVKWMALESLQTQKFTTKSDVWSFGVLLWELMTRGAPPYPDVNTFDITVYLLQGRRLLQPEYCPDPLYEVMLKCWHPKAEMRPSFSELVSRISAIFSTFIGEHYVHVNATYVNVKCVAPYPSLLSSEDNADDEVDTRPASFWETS
assay readout: pIC50
Bear in mind: pIC50 is minus log10 of a mol/L concentration; give just that figure.

# input Supply recorded pIC50 for CCOc1ccn(-c2ccc(F)cc2)c(=O)c1C(=O)Nc1ccc(Oc2ccnc(N)c2Cl)c(F)c1 here.
# output 8.46
